Test system: p38-delta;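 note: KINOMEscan kinase panel screen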
Conditions: concentration: 1 μM, replicates: in singlicate; n = 1
Criterion: %Inh strictly under 20%. Met: 1.0. Not met: 0.0.

{"molecularString": "Nc1nc(-c2ccc3c(N)n[nH]c3c2)cc(N2CCCCC2)n1", "label": 1.0}
{"molecularString": "CSc1ccc(NC2=C(c3ccccc3Cl)C(=O)NC2=O)cc1", "label": 1.0}
{"molecularString": "O=c1cc(N2CCOCC2)nc2n(Cc3cccc(Cl)c3)ccn12", "label": 0.0}
{"molecularString": "CC(=O)Nc1n[nH]c2ncc(-c3ccccc3)cc12", "label": 1.0}
{"molecularString": "Cc1ccc(C)c(NC(=O)NCCNc2ccnc(Nc3ccc(F)cc3)n2)c1", "label": 0.0}
